Measured Ki by item
- Assayed Target: full length human recombinant glucocorticoid receptor (Homo sapiens, UniProt P04150)
- Construct: It contains some partially purified full length human recombinant glucocorticoid receptor
- Sequence (P04150 1-777): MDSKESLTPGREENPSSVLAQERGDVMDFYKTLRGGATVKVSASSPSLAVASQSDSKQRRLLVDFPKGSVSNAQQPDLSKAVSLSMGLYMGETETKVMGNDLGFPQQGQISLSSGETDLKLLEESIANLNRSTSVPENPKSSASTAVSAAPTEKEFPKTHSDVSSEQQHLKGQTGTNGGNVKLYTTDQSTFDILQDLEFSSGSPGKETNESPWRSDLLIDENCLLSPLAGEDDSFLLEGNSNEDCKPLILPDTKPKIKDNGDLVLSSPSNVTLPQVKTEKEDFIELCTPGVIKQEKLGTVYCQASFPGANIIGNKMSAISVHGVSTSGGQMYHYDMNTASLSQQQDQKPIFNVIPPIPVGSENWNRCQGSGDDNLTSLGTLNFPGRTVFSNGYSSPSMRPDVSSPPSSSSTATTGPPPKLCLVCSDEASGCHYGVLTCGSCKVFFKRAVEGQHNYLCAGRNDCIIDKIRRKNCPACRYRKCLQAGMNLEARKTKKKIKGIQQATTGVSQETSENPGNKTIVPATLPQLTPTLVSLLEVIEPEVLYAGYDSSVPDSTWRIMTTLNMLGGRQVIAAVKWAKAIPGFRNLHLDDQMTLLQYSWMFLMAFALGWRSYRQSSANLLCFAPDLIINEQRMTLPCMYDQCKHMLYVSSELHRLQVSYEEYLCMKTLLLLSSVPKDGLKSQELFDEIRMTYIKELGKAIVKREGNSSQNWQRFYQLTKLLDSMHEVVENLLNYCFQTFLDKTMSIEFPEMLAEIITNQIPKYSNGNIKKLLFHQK
- Test Description: Glucocorticoid Receptor Binding Assay (Glucocorticoid Receptor Competitor Assay far red kit, fluorescence polarization)
- Details: competition with fluorescent GR ligand Fluormone GS Far Red, 3 hours at 22° C., pH 7.4; Ki calculated from IC50 by Cheng-Prusoff
Property Label: Ki

[
  {
    "Molecule": "CCOC(=O)c1ccc(Oc2ccc([C@@H](C)[C@@](O)(c3ccc4c(c3)N(C)C(=O)CO4)C(F)(F)F)c(Cl)c2)nc1C(F)(F)F (racemic) [Example 214]",
    "Assayed Target": "full length human recombinant glucocorticoid receptor (Homo sapiens, UniProt P04150)",
    "Property Label": "Ki",
    "Assay Value": "4.1 nM"
  },
  {
    "Molecule": "COC(=O)c1ccc(Oc2ccc([C@@H](C)[C@@](O)(c3ccc4oc(=O)n(C)c4c3)C(F)(F)F)c(Cl)c2)nn1 (relative stereo) [Example 199]",
    "Assayed Target": "full length human recombinant glucocorticoid receptor (Homo sapiens, UniProt P04150)",
    "Property Label": "Ki",
    "Assay Value": "2.1 nM"
  },
  {
    "Molecule": "C[C@H](c1ccc(Oc2ccc(C(=O)O)cn2)cc1Cl)[C@@](O)(c1ccc2oc(=O)n(C)c2c1)C(F)(F)F (stereo in doubt) [Example 181]",
    "Assayed Target": "full length human recombinant glucocorticoid receptor (Homo sapiens, UniProt P04150)",
    "Property Label": "Ki",
    "Assay Value": "0.5 nM"
  },
  {
    "Molecule": "C[C@@H](c1cc(-c2cccc(C(=O)O)c2)ccc1Cl)[C@](O)(c1ccc2c(c1)N(C)C(=O)CO2)C(F)(F)F (relative stereo) [Example 18]",
    "Assayed Target": "full length human recombinant glucocorticoid receptor (Homo sapiens, UniProt P04150)",
    "Property Label": "Ki",
    "Assay Value": "609 nM"
  },
  {
    "Molecule": "COC(=O)c1ccc(Oc2ccc([C@@H](C)[C@@](O)(c3ccc4c(c3)N(C)C(=O)CO4)C(F)(F)F)c(Cl)c2)cc1Cl (single isomer, unassigned) [Example 216]",
    "Assayed Target": "full length human recombinant glucocorticoid receptor (Homo sapiens, UniProt P04150)",
    "Property Label": "Ki",
    "Assay Value": "60.2 nM"
  },
  {
    "Molecule": "COC(=O)c1ccc(Oc2ccc([C@@H](C)[C@@](O)(c3ccc4oc(=O)n(C)c4c3)C(F)(F)F)c(Cl)c2)nc1Cl (stereo in doubt) [Example 182]",
    "Assayed Target": "full length human recombinant glucocorticoid receptor (Homo sapiens, UniProt P04150)",
    "Property Label": "Ki",
    "Assay Value": "3.3 nM"
  }
]
